- METHOD: Single ascending dose study, fasted and fed: safety and non-compartmental plasma PK
- Assay type: in vivo, healthy volunteers (human)
- MEASUREMENT SETUP: human, plasma, oral, 1600 mg, Geometric Mean of 10 subjects; single 1600 mg dose, Fasted; read-out: Cmax
ASSAY ENDPOINT: Cmax

[[record]]
compound = "CC(C)(C)OC(=O)N[C@H]1CCCCC/C=C\\[C@@H]2C[C@@]2(C(=O)NS(=O)(=O)C2CC2)NC(=O)[C@@H]2C[C@@H](OC(=O)N3Cc4cccc(F)c4C3)CN2C1=O [ITMN-191]"
assay_endpoint = "Cmax"
val = "0.538 µg/mL"


----------
pIC50: −log10 of the molar value.
Entries with their measured pIC50, system NS3-NS4 (Hepatitis C virus genotype 1a):
ASSAY ENDPOINT: pIC50

[[record]]
record_smiles = "Cc1csc(N[C@H]2CCCCC/C=C\\[C@@H]3C[C@@]3(C(=O)NS(=O)(=O)C3CC3)NC(=O)[C@@H]3C[C@@H](OC(=O)N4Cc5cccc(F)c5C4)CN3C2=O)n1"
val = "> 7.00"

[[record]]
record_smiles = "Cc1ccc(ONC(=O)[C@@]23C[C@H]2CCCCCCC[C@H](NC(=O)OC(C)(C)C)C(=O)N2C[C@H](OC(=O)N4Cc5cccc(F)c5C4)C[C@H]2C(=O)N3)cc1C"
val = "> 7.00"

[[record]]
record_smiles = "O=C1N[C@]2(C(=O)NS(=O)(=O)C3CC3)C[C@H]2/C=C\\CCCCC[C@H](Nc2nc(-c3ccc(Cl)cc3)cs2)C(=O)N2C[C@H](OC(=O)N3Cc4cccc(F)c4C3)C[C@@H]12"
val = "> 7.00"

[[record]]
record_smiles = "CC(=O)O[C@@H]1C[C@H]2C(=O)N[C@]3(C(=O)NS(=O)(=O)C4CC4)C[C@H]3/C=C\\CCCCC[C@H](Nc3ncc(-c4ccccc4)s3)C(=O)N2C1"
val = "> 7.00"

[[record]]
record_smiles = "O=C1N[C@]2(C(=O)NS(=O)(=O)C3CC3)C[C@H]2/C=C\\CCCCC[C@H](Nc2nc3c(s2)CCC3)C(=O)N2C[C@H](OC(=O)N3Cc4cccc(F)c4C3)C[C@@H]12"
val = "> 7.00"

[[record]]
record_smiles = "CN(Cc1ccccc1)C(=O)N[C@H]1CCCCC/C=C\\[C@@H]2C[C@@]2(C(=O)NS(=O)(=O)C2CC2)NC(=O)[C@@H]2C[C@@H](OC(=O)N3Cc4cccc(F)c4C3)CN2C1=O"
val = "> 7.00"

[[record]]
record_smiles = "CC(C)(C)OC(=O)N[C@H]1CCCCCCC[C@@H]2C[C@@]2(C(=O)NOc2cccc(F)c2)NC(=O)[C@@H]2C[C@@H](OC(=O)N3Cc4cccc(F)c4C3)CN2C1=O"
val = "> 7.00"

[[record]]
record_smiles = "O=C(N[C@H]1CCCCC/C=C\\[C@@H]2C[C@@]2(C(=O)NS(=O)(=O)C2CC2)NC(=O)[C@@H]2C[C@@H](OC(=O)N3Cc4cccc(F)c4C3)CN2C1=O)c1ccc(Cl)cc1"
val = "> 7.00"

[[record]]
record_smiles = "CC(C)CN(C)C(=O)N[C@H]1CCCCC/C=C\\[C@@H]2C[C@@]2(C(=O)NS(=O)(=O)C2CC2)NC(=O)[C@@H]2C[C@@H](OC(=O)N3Cc4cccc(F)c4C3)CN2C1=O"
val = "> 7.00"

[[record]]
record_smiles = "CCC1(S(=O)(=O)NC(=O)[C@@]23C[C@H]2CCCCCCC[C@H](NC(=O)OC(C)(C)C)C(=O)N2C[C@H](OC(=O)N4Cc5cccc(F)c5C4)C[C@H]2C(=O)N3)CC1"
val = "> 7.00"

[[record]]
record_smiles = "CCC(C)(C)OC(=O)N[C@H]1CCCCC/C=C\\[C@@H]2C[C@@]2(C(=O)NS(=O)(=O)c2cc(Cl)sc2Cl)NC(=O)[C@@H]2C[C@@H](OC(=O)N3Cc4cccc(F)c4C3)CN2C1=O"
val = "> 7.00"

[[record]]
record_smiles = "CC(C)(C)OC(=O)N[C@H]1CCCCC/C=C\\[C@@H]2C[C@@]2(C(=O)NS(=O)(=O)c2cc(Cl)ccc2Cl)NC(=O)[C@@H]2C[C@@H](OC(=O)N3Cc4cccc(F)c4C3)CN2C1=O"
val = "> 7.00"

[[record]]
record_smiles = "O=C1N[C@]2(C(=O)NS(=O)(=O)C3CC3)C[C@H]2/C=C\\CCCCC[C@H](Nc2nc(-c3cccnc3)cs2)C(=O)N2C[C@H](OC(=O)N3Cc4cccc(F)c4C3)C[C@@H]12"
val = "> 7.00"

[[record]]
record_smiles = "O=C1N[C@]2(C(=O)NS(=O)(=O)C3CC3)C[C@H]2/C=C\\CCCCC[C@H](NC(=O)C2(C(F)(F)F)CC2)C(=O)N2C[C@H](OC(=O)N3Cc4cccc(F)c4C3)C[C@@H]12"
val = "> 7.00"

[[record]]
record_smiles = "Cc1cc(C)cc(ONC(=O)[C@@]23C[C@H]2CCCCCCC[C@H](NC(=O)OC(C)(C)C)C(=O)N2C[C@H](OC(=O)N4Cc5cccc(F)c5C4)C[C@H]2C(=O)N3)c1"
val = "> 7.00"

[[record]]
record_smiles = "CC(C)COC(=O)N[C@H]1CCCCC/C=C\\[C@@H]2C[C@@]2(C(=O)NS(=O)(=O)c2cc(Cl)sc2Cl)NC(=O)[C@@H]2C[C@@H](OC(=O)N3Cc4cccc(F)c4C3)CN2C1=O"
val = "> 7.00"

[[record]]
record_smiles = "CC(C)(C)OC(=O)N[C@H]1CCCCC/C=C\\[C@@H]2C[C@@]2(C(=O)NS(=O)(=O)Cc2cc(F)ccc2F)NC(=O)[C@@H]2C[C@@H](OC(=O)N3Cc4cccc(F)c4C3)CN2C1=O"
val = "> 7.00"

[[record]]
record_smiles = "O=C(N[C@H]1CCCCC/C=C\\[C@@H]2C[C@@]2(C(=O)NS(=O)(=O)c2ccc(Cl)cc2)NC(=O)[C@@H]2C[C@@H](OC(=O)N3Cc4cccc(F)c4C3)CN2C1=O)OC1CCC1"
val = "> 7.00"

[[record]]
record_smiles = "CC(C)(C)OC(=O)N[C@H]1CCCCC/C=C\\[C@@H]2C[C@@]2(C(=O)NOCC2CC2)NC(=O)[C@@H]2C[C@@H](OC(=O)N3Cc4cccc(F)c4C3)CN2C1=O"
val = "> 7.00"


----------
pIC50: −log10 of the molar value.
Entries with their measured pIC50, system NS3-NS4 (Hepatitis C virus genotype 1a, UniProt P27958):
ASSAY ENDPOINT: pIC50

[[record]]
record_smiles = "C[C@H](O)CONC(=O)[C@@]12C[C@H]1/C=C\\CCCCC[C@H](NC(=O)OC(C)(C)C)C(=O)N1C[C@H](OC(=O)N3Cc4cccc(F)c4C3)C[C@H]1C(=O)N2"
tested_system = "NS3-NS4 (Hepatitis C virus genotype 1a, UniProt P27958)"
val = "> 7.00"

[[record]]
record_smiles = "O=C1N[C@]2(C(=O)NS(=O)(=O)C3CC3)C[C@H]2/C=C\\CCCCC[C@H](Nc2nc(-c3ccccc3Cl)cs2)C(=O)N2C[C@H](OC(=O)N3Cc4cccc(F)c4C3)C[C@@H]12"
tested_system = "NS3-NS4 (Hepatitis C virus genotype 1a, UniProt P27958)"
val = "> 7.00"

[[record]]
record_smiles = "CC(C)(C)OC(=O)N[C@H]1CCCCCCC[C@@H]2C[C@@]2(C(=O)NOc2ccc(F)cc2)NC(=O)[C@@H]2C[C@@H](OC(=O)N3Cc4cccc(F)c4C3)CN2C1=O"
tested_system = "NS3-NS4 (Hepatitis C virus genotype 1a, UniProt P27958)"
val = "> 7.00"


----------
- TESTED SYSTEM: NS3-NS4 (Hepatitis C virus genotype 1a, UniProt P27958)
- Sequence (P27958 1027-1657): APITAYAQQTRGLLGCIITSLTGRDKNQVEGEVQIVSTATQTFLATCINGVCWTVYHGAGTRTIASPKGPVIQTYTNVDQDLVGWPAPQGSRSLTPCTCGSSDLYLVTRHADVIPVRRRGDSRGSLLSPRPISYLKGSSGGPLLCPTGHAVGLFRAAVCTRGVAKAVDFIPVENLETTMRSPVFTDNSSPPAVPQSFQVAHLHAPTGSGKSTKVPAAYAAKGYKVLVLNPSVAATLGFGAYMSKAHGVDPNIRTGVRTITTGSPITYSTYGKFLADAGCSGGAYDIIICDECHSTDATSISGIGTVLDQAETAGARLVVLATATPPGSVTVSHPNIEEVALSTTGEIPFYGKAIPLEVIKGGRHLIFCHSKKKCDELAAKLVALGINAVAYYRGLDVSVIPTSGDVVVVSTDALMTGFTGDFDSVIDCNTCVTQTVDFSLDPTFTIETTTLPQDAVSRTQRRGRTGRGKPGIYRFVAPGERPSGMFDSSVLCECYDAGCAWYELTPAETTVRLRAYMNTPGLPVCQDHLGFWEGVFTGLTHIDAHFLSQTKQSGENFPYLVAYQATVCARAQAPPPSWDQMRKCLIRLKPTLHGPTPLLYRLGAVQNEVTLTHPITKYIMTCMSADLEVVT
- Sequence (P27958 1658-1711): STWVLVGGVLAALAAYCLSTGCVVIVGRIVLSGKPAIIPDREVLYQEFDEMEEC
- METHOD: NS3-NS4 activity, IC50 (Example 37, Table 8)
- Format: biochemical
pIC50: −log10 of the molar value.
ASSAY ENDPOINT: pIC50

[[record]]
compound = "Cc1ccc(ONC(=O)[C@@]23C[C@H]2CCCCCCC[C@H](NC(=O)OC(C)(C)C)C(=O)N2C[C@H](OC(=O)N4Cc5cccc(F)c5C4)C[C@H]2C(=O)N3)cc1 [Compound 808]"
val = "> 7.00"

[[record]]
compound = "Cc1cc(S(=O)(=O)NC(=O)[C@@]23C[C@H]2CCCCCCC[C@H](NC(=O)OC(C)(C)C)C(=O)N2C[C@H](OC(=O)N4Cc5cccc(F)c5C4)C[C@H]2C(=O)N3)sc1C [Compound 646]"
val = "> 7.00"

[[record]]
compound = "Cc1ccc(S(=O)(=O)NC(=O)[C@@]23C[C@H]2/C=C\\CCCCC[C@H](NC(=O)OC(C)(C)C)C(=O)N2C[C@H](OC(=O)N4Cc5cccc(F)c5C4)C[C@H]2C(=O)N3)cc1 [Compound 318]"
val = "> 7.00"

[[record]]
compound = "O=C1N[C@]2(C(=O)NS(=O)(=O)C3CC3)C[C@H]2/C=C\\CCCCC[C@H](Nc2nc(-c3ccc(F)cn3)cs2)C(=O)N2C[C@H](OC(=O)N3CCc4ccccc4C3)C[C@@H]12 [Compound 229]"
val = "> 7.00"

[[record]]
compound = "CC(C)(C)OC(=O)N[C@H]1CCCCC/C=C\\[C@@H]2C[C@@]2(C(=O)NS(=O)(=O)c2ccccc2Cl)NC(=O)[C@@H]2C[C@@H](OC(=O)N3Cc4cccc(F)c4C3)CN2C1=O [Compound 332]"
val = "> 7.00"

[[record]]
compound = "CC(C)(C)OC(=O)N[C@H]1CCCCCCC[C@@H]2C[C@@]2(C(=O)NS(=O)(=O)Cc2c(Cl)cccc2Cl)NC(=O)[C@@H]2C[C@@H](OC(=O)N3Cc4cccc(F)c4C3)CN2C1=O [Compound 626]"
val = "> 7.00"

[[record]]
compound = "Cc1ccccc1CS(=O)(=O)NC(=O)[C@@]12C[C@H]1CCCCCCC[C@H](NC(=O)OC(C)(C)C)C(=O)N1C[C@H](OC(=O)N3Cc4cccc(F)c4C3)C[C@H]1C(=O)N2 [Compound 613]"
val = "> 7.00"

[[record]]
compound = "CC(C)(C)OC(=O)N[C@H]1CCCCC/C=C\\[C@@H]2C[C@@]2(C(=O)NS(=O)(=O)C2(C)CC2)NC(=O)[C@@H]2C[C@@H](OC(=O)N3Cc4cccc(Cl)c4C3)CN2C1=O [Compound 445]"
val = "> 7.00"

[[record]]
compound = "CC(C)(C)OC(=O)N[C@H]1CCCCC/C=C\\[C@@H]2C[C@@]2(C(=O)NS(=O)(=O)c2ccc(Cl)nc2)NC(=O)[C@@H]2C[C@@H](OC(=O)N3Cc4cccc(F)c4C3)CN2C1=O [Compound 530]"
val = "> 7.00"

[[record]]
compound = "CC(C)C1(S(=O)(=O)NC(=O)[C@@]23C[C@H]2CCCCCCC[C@H](NC(=O)OC(C)(C)C)C(=O)N2C[C@H](OC(=O)N4Cc5cccc(F)c5C4)C[C@H]2C(=O)N3)CC1 [Compound 653]"
val = "> 7.00"

